- Experiment: Competitive ELISA, relative CTS specificity, CINO as competitor
- Format: binding
- Experimental context: competition with immobilized MBG-BSA; normalized to MBG = 100%
Property name: Rel. CTS Specificity as % of MBG Binding: CINO

| Molecule | Meas value |
| --- | --- |
| 236/237: human anti-MBG antibody, VH SEQ ID NO: 14, VL SEQ ID NO: 15 (antibody, listed as Homo sapiens, V domains shown) VH: QVQLQESGPGLVKPSETLSLTCTVSGGSISSSSYYWGWIRQPPGKGLEWIGSIYYSGSTYYNPSLKSRVTISVDTSKNQFSLKLSSVTAADTAVYYCARARYNWNYVLFDYWGQGTLVTVSS VL: QAVLTQPSSVSAAPRQRVTISCSGSASNIGRNGVSWYHQVPGKAPRLLLSHDGLVTSGVPDRLSVSKSGTSASLAISGLHSDDEGDYYCAVWDDSLNAVVFGGGTKLTVLS | 0% |
| 205/207: human anti-MBG antibody, VH SEQ ID NO: 53, VL SEQ ID NO: 54 (antibody, listed as Homo sapiens, V domains shown) VH: QLQLQESGPGLVKPSETLSLTCTVSGGSISSSSYYWGWIRQPPGKGLEWIGSIYYSGSTYYNPSLKSRVTISVDTSKNQFSLKLSSVTAADTAVYYCARFHTWAPRAFDIWGQGTMVTVSS VL: QSVVTQPPSVSAAPGQEVTISCSGSSSNIGNNYVSWYQQLPGTAPKLLIYDNNKRPSGIPDRFSGSKSGTSATLGITGLQTGDEADYYCGTWDSSLSALFGGGTKLTVL | 0% |
